System: CAMK2G
EXPERIMENTAL SETUP: concentration: 1 μM, replicates: in singlicate; n = 1;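 further: KINOMEscan kinase panel screen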
Measured %Inh, listed per entry for reference.
Report the figure in % without appending any unit label.

Examples from the recorded data:
Fill in the blank: the reported %Inh of CCn1c(-c2ccccn2)nc2cnccc21 [SB-736398] is ____.
0

Fill in the blank: the reported %Inh of COc1cc2ncn(-c3cc(OCC4CCCO4)c(C(N)=O)s3)c2cc1OC (stereo not drawn) [GSK204607] is ____.
0

Fill in the blank: the reported %Inh of NC(=O)c1nnc2ccccc2c1N is ____.
0

Fill in the blank: the reported %Inh of Cc1cccc(-c2nc(-c3ccc(S(C)(=O)=O)cc3)sc2-c2ccnc(NCCc3ccccc3)c2)c1 is ____.
9

Fill in the blank: the reported %Inh of Cc1cccc(-c2nc(Nc3ccc4[nH]ncc4c3)c3ccccc3n2)n1 [GW857175] is ____.
0

Others:
Fill in the blank: the reported %Inh of Fc1cccc(COc2nnc(-c3ccc4c(c3)CCO4)o2)c1 is ____.
7

====

Measured %Inh, listed per entry for reference.
Tested on: AKT1
EXPERIMENTAL SETUP: concentration: 1 μM, replicates: in singlicate; n = 1
Report the figure in % without appending any unit label.

Fill in the blank: the reported %Inh of Cc1ccc(NC(=O)Nc2cccc(Cl)c2)cc1-c1ccc(C(=O)Nc2ccncc2)cc1 is ____.
0

Fill in the blank: the reported %Inh of COc1cc(Nc2nccc(N3CCC(NC(=O)Nc4cc(C)ccc4C)C3)n2)cc(OC)c1OC (stereo not shown) is ____.
0

Fill in the blank: the reported %Inh of Cn1cncc1-c1ccc2ncnc(Nc3ccc(OCc4ccccc4)cc3)c2c1 is ____.
0

Read the next record carefully.
Fill in the blank: the reported %Inh of COc1ccc(C2=C(Nc3cccc(C(=O)O)c3)C(=O)NC2=O)cc1 is ____.
1

====

Test system: JNK1
Construct: gene MAPK8
EXPERIMENTAL SETUP: concentration: 1 μM, replicates: in singlicate; n = 1
READOUT TYPE: %Inh (%)
Report the figure in % without appending any unit label.

Examples from the recorded data:
Fill in the blank: the reported %Inh of Nc1nc(-c2nccs2)c(-c2ccnc3ccccc23)s1 [GW693542] is ____.
20

Fill in the blank: the reported %Inh of COc1cccc(-c2cc(-c3c[nH]nc3-c3ccccn3)ccn2)c1 [GW680338] is ____.
42

Fill in the blank: the reported %Inh of O=C(O)COc1ncnc2cc(-c3ccc4[nH]ncc4c3)sc12 is ____.
30

Read the next record carefully.
Fill in the blank: the reported %Inh of COC(=O)c1c(-c2ccccc2)c2cc(C(=O)O)ccc2c(=O)n1Cc1ccccc1 is ____.
0

====

Test system: PHKG2
EXPERIMENTAL SETUP: concentration: 1 μM, replicates: in singlicate; n = 1
READOUT TYPE: %Inh (%)
Report the figure in % without appending any unit label.

Examples from the recorded data:
Please tell me: %Inh of COc1cc2nccc(Nc3ccc(NC(=O)c4ccc(C)cc4)c(O)c3)c2cc1OC.Cl [GW440132] , system PHKG2?
0

Please tell me: %Inh of Fc1cc(Cl)ccc1Nc1ccnc2cc(I)ccc12 [GW551191] , system PHKG2?
0

Please tell me: %Inh of O=C(Nc1n[nH]c2nc(-c3nccs3)c(Br)cc12)C1CCCC1 [SB-742609] , system PHKG2?
0

Please tell me: %Inh of Cl.c1ccc(-c2n[nH]cc2-c2ccnc(-c3ccc(CN4CCOCC4)cc3)c2)nc1 [GW776245] , system PHKG2?
14

Please tell me: %Inh of CN1C(=O)C(Nc2ccc(Cl)c(C(=O)O)c2)=C(c2ccc(Cl)cc2)C1=O [SB-404290] , system PHKG2?
0

Others:
Please tell me: %Inh of COc1ccccc1CNC(=O)c1cc(C(=O)c2ccccc2C)c[nH]1 [GSK364507] , system PHKG2?
0

Please tell me: %Inh of O=C(O)COc1ncnc2cc(-c3ccc4[nH]ncc4c3)sc12 , system PHKG2?
3

Please tell me: %Inh of Cc1cc(N2Cc3ccccc3C2)nc(Nc2ccc(S(=O)(=O)N3CCOCC3)cc2)n1.Cl [GSK1669917] , system PHKG2?
0

Please tell me: %Inh of C[C@@H]1CCCCN1c1cc(-c2ccc3c(N)n[nH]c3c2)nc(N)n1 [GSK2258759] , system PHKG2?
0
